# target-or-system: T1, 4H496-bH
# T1 chain: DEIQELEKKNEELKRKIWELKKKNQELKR
# assay-details: two-hybrid library CCNG1;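 note: natural log of median RNA to DNA barcode read ratio; higher means stronger binding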
Cut-off -0.4 on interaction score: below means t, at or above means f.

DKIQELKKKNEELKRKNWELKKKIQELKR [4H3070-bH] | f
DKIQELKKENEELEREIWELEKENQELER [4H2691-bH] | f
DEIQELEKENEELERENWELEKEIQELER [4H145-bH] | f
DKNQELKKEIEELERKIWELKKKNQELKR [4H3632-bH] | t
DEIQELEKKNEELKRKIWELKKKNQELKR [4H496-bH] | f

In: I'd appreciate it if you could check whether DKIQELKKEIEELERKNWELKKENQELER [4H2619-bH] has interaction score smaller than -0.4.
Out: t

In: I'd appreciate it if you could check whether DENQELEKKIEELKREIWELEKENQELER [4H1347-bH] has interaction score smaller than -0.4.
Out: t

In: I'd appreciate it if you could check whether DEIQELEKKIEELKRENWELEKKIQELKR [4H342-bH] has interaction score smaller than -0.4.
Out: f
